- SUBJECT_OF_TEST: T1, PUF4 RNA-binding domain (Saccharomyces cerevisiae, UniProt P25339 537-888)
- T1 sequence: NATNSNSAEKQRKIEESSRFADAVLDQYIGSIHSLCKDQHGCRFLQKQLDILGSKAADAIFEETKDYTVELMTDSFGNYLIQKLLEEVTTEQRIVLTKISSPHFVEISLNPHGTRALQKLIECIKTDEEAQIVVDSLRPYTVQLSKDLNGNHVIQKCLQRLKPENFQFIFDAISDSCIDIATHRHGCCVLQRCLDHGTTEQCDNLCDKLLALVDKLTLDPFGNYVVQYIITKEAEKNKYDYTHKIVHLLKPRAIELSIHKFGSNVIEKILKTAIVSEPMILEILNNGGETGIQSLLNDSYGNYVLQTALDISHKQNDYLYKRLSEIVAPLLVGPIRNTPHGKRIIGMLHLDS
- RUN_DESCRIPTION: Mg; RNA-MaP; 20 mM Na-HEPES pH 7.4, 30 mM KOAc, 0.75 mM MgCl2, 0.1% Tween-20, 5% glycerol, 0.1 mg/mL BSA, 2 mM DTT; 25 C; 0.0125-409.6 nM protein
- COND: tags: N-His6-TEV cleaved; C-SNAP kept, Cy3B-labelled; label: tethered on chip by stalled RNA polymerase
pKd: −log10 of the molar value.
# cutoff 8 applies to pKd; >= gives Condition met, < gives Condition not met

| BINDER | GROUP_LABEL |
| --- | --- |
| Ie_S2_P5E.1_K5.1_C5.1_H5.1_[+4CT]_A5.1_F5.1_T5.1 (ssRNA) RNA: UUUGAUUAAUAUGAUAUCGUUCUUUCUUGUACUUUAUUAUUCUUUCUCGAUAUCAUAUUAAUCUUU | Condition met |
| Ib_S4_P3E.1_K3.1_C3.1_H3.1_[G2A]_A3.1_F3.1_[T7A]_T3.1 (ssRNA) RNA: UUUGACAACUGAUCGUUCUUUCUUAUAUAAAUUCUUUCUCGAUCAGUUGUCUUU | Condition not met |
| UCUCUUCCUGUAUAUAGUUCUCUU (ssRNA) [Id_ii_S1_P3E.2_K3.1_C3.2_[T-1C]_H3.1_A3.1_F3.1_T3.2_[T9G]_[A10T]] | Condition met |
| UCUCUUAAUAUAUAUAGUUCUCUU (ssRNA) [Id_ii_S1_P3E.3_K3.2_C3.2_[C-2A]_[T-1A]_H3.2_A3.1_F3.1_T3.2_[T9G]_[A10T]] | Condition not met |
